system: F. proliferatum ATCC 10052; experiment: MIC by broth macro-dilution method, F. proliferatum ATCC 10052; assay type: cell-based, Fusarium proliferatum; conditions: Fusarium proliferatum, ATCC10052, RPMI 1640 with MOPS, 48 hours, MIC = concentration exhibiting 80% inhibition vs positive growth control
OBSERVED PROPERTY: MIC

COMPOUND: O=c1oc2ccccc2n1CC(O)(Cn1cncn1)c1ccc(F)cc1F (stereo not shown) [Compound 1q]
MIC: > 128 µg/mL
--
COMPOUND: O=C1CSc2cc(Cl)ccc2N1CC(O)(Cn1cncn1)c1ccc(F)cc1 (stereo not shown) [Compound 1f]
MIC: > 16 µg/mL
--
COMPOUND: CC(=O)c1ccc2c(c1)N(CC(O)(Cn1cncn1)c1ccc(Br)cc1)C(=O)CO2 (stereo not shown) [Compound 1p]
MIC: > 32 µg/mL

Now consider a different compound.
Consider CC(=O)c1ccc2c(c1)N(CC(O)(Cn1cncn1)c1ccc(F)cc1F)C(=O)CO2 (stereo not shown) [Compound 1m] . Its measured MIC is > 64 µg/mL

* * *

Listed below: MIC values for each entry.
tested on: F. proliferatum ATCC 10052; assay: MIC by broth macro-dilution method, F. proliferatum ATCC 10052; format: cell-based, Fusarium proliferatum; settings: Fusarium proliferatum, ATCC10052, RPMI 1640 with MOPS, 48 hours, MIC = concentration exhibiting 80% inhibition vs positive growth control

MOLECULE: O=C1COc2ccc([N+](=O)[O-])cc2N1CC(O)(Cn1cncn1)c1ccc(F)cc1F (centres unmarked) [Compound 1l]
RESULT VALUE: > 32 mg/L

MOLECULE: O=C1COc2ccc(Br)cc2N1CC(O)(Cn1cncn1)c1ccc(F)cc1F (centres unmarked) [Compound 1k]
RESULT VALUE: > 32 mg/L

Hey, F. proliferatum ATCC 10052 data for Cc1ccc2c(c1)SCC(=O)N2CC(O)(Cn1cncn1)c1ccc(F)cc1F (centres unmarked) [Compound 1e] : MIC came out at > 32 mg/L

Hey, F. proliferatum ATCC 10052 data for O=C1COc2ccc(Cl)cc2N1CC(O)(Cn1cncn1)c1ccc(Br)cc1 (centres unmarked) [Compound 1n] : MIC came out at > 16 mg/L

Hey, F. proliferatum ATCC 10052 data for OC(Cn1cncn1)(Cn1cncn1)c1ccc(F)cc1F [Fluconazole, reference compound] : MIC came out at > 128 mg/L

Hey, F. proliferatum ATCC 10052 data for COc1ccc2c(c1)SCC(=O)N2CC(O)(Cn1cncn1)c1ccc(Br)cc1 (centres unmarked) [Compound 1g] : MIC came out at > 16 mg/L

Hey, F. proliferatum ATCC 10052 data for COc1ccc2c(c1)SCC(=O)N2CC(O)(Cn1cncn1)c1ccc(F)cc1F (centres unmarked) [Compound 1d] : MIC came out at > 32 mg/L

Hey, F. proliferatum ATCC 10052 data for O=C1CSc2ccccc2N1CC(O)(Cn1cncn1)c1ccc(F)cc1F (centres unmarked) [Compound 1a] : MIC came out at > 64 mg/L

* * *

Listed below: MIC values for each entry.
Test system: F. proliferatum ATCC 10052
Test: MIC by broth macro-dilution method, F. proliferatum ATCC 10052
Type: cell-based, Fusarium proliferatum
Details: Fusarium proliferatum, ATCC10052, RPMI 1640 with MOPS, 48 hours, MIC = concentration exhibiting 80% inhibition vs positive growth control
Experimental: The compounds of Formula 1 were tested for antifungal activity against various fungi including Candida albicans, Aspergillus niger and Fusarium proliferatum. […] End points were determined after 48 hours visually and by using spectrophotometer wherever necessary. […]

Consider O=C1COc2ccccc2N1CC(O)(Cn1cncn1)c1ccc(F)cc1F (centres unmarked) . Its measured MIC is > 64 µg/mL

Consider O=C1CSc2cc(Cl)ccc2N1CC(O)(Cn1cncn1)c1ccc(F)cc1F (centres unmarked) . Its measured MIC is > 16 µg/mL

Consider COc1ccc2c(c1)SCC(=O)N2CC(O)(Cn1cncn1)c1ccc(F)cc1 (centres unmarked) . Its measured MIC is > 16 µg/mL

Consider O=C1COc2ccc(Cl)cc2N1CC(O)(Cn1cncn1)c1ccc(F)cc1F (centres unmarked) . Its measured MIC is > 32 µg/mL

Consider O=C1CSc2cc(Br)ccc2N1CC(O)(Cn1cncn1)c1ccc(F)cc1F (centres unmarked) . Its measured MIC is > 16 µg/mL
